target: FGFR1 IIIc (Homo sapiens); construct: host or cells: Cos-1; assay: Cell based inhibition of transiently expressed FGFR1 IIIc phosphorylation via use of ECHO technology (Cos-1 cells); settings: Cos-1 cells, phospho-FGFR1, ECHO dosing; upper bound of bin; read-out: IC50
Sequence (P11362 22-822): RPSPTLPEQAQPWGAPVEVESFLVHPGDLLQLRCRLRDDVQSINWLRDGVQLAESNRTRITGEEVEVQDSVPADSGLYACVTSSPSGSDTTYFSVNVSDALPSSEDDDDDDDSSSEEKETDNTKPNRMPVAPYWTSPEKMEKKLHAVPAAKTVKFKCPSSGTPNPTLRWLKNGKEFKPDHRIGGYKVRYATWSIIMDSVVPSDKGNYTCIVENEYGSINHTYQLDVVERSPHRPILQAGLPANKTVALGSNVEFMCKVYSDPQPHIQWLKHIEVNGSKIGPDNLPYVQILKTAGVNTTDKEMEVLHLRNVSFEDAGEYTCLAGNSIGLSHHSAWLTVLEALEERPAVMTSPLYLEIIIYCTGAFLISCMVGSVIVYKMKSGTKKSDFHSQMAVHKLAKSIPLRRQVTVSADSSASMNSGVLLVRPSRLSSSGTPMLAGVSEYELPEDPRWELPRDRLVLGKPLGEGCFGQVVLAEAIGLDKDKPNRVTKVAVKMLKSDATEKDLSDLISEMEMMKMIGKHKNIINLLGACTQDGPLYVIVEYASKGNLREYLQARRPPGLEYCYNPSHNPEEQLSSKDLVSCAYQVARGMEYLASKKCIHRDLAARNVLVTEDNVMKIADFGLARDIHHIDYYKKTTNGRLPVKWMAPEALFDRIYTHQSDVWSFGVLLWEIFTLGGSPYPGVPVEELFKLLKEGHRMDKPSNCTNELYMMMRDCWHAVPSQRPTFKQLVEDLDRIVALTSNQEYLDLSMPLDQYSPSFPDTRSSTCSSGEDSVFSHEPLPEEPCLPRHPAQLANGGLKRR
Where a name gives a salt, the structure may show the parent alone.
Provide the recorded IC50 for the entries that follow.

The recorded IC50 for entry `COc1cncc(CCc2cc(Nc3ccnc(NCc4cc(C)no4)n3)n[nH]2)c1` equals < 10 µM

Lab note: measured IC50 of `NC(=O)c1cc(CNc2nccc(Nc3cc(CCc4ccccc4)n[nH]3)n2)on1` was < 10 µM

Notebook: `CNC(=O)c1cccc(COc2cc(Nc3ccnc(NCc4cc(C)no4)n3)n[nH]2)c1` , IC50 read as < 1 µM

Reported IC50 of `COc1cncc(CCc2cc(Nc3ccnc(NCc4cc(CN(C)C)no4)n3)n[nH]2)c1` : < 30 µM

Summary for this molecule, Cc1cc(CNc2nccc(Nc3cc(CCc4cccc(Oc5ncccn5)c4)[nH]n3)n2)on1 [Example 133, hydrochloride] : IC50 is < 10 µM

So for Cc1cccc(CCc2cc(Nc3ccnc(NCc4cc(C)no4)n3)n[nH]2)c1 [Example 52, hydrochloride] , the logged IC50 turned out to be < 1 µM

Lab book: IC50 of `CC(C)Oc1cc(Nc2ccnc(NCc3cc(-c4ncccn4)no3)n2)n[nH]1` noted as < 1 µM

Entry `CCOCCCc1cc(Nc2ccnc(NCc3cc(C4CC4)no3)n2)[nH]n1` — recorded IC50 = < 1 µM

Record summary for `CCCc1cc(Nc2ccnc(NCc3cc(C(N)=O)no3)n2)n[nH]1` : reported IC50 = < 1 µM

// recorded IC50 for `Cc1cc(CNc2nccc(Nc3cc(CCc4cccc(O)c4)[nH]n3)n2)on1` : < 1 µM

For `Cc1cc(Nc2ccnc(NCc3cc(C4CC4)no3)n2)n[nH]1` the molecule record lists IC50 as < 1 µM

The recorded IC50 for `COc1cc(COc2cc(Nc3ccnc(NCc4cc(C)no4)n3)n[nH]2)cc(OC)c1` is < 0.2 µM

The measured IC50 associated with `c1coc(-c2cc(Nc3ccnc(NCc4cc(C5CC5)no4)n3)n[nH]2)c1` reads < 0.2 µM

Per the records, this molecule ( `Cc1cc(CNc2nccc(Nc3cc(CCc4cccc(C(=O)N(C)C)c4)[nH]n3)n2)on1` ) has IC50 equal to < 30 µM

Looking up `Cc1cc(Nc2cc(OC(C)C)[nH]n2)nc(NCc2cc(C3CC3)no2)n1` , I see its IC50 listed as < 0.2 µM

Given item `COc1cc(CCc2cc(Nc3ccnc(NCc4cc(C)no4)n3)n[nH]2)cc(NC(C)=O)c1` , the value recorded as its IC50 is < 30 µM

IC50 for `CCCc1cc(Nc2ccnc(NCc3cc(C4CC4)no3)n2)n[nH]1` is < 0.2 µM
